Every entry's value here was drawn from a melting point compilation (Tetko et al.; mined from patent text by program, amines drawn as free bases though some values may be those of a salt).

parameter: melting point

Cc1nc(C(=O)O)c(C(=O)NC(C)(C)C)o1	186 to 188 °C
O=C(O)CNS(=O)(=O)c1ccc(N2CCC(c3ccccc3)CC2)cc1	154 to 156 °C
CCC(Cc1ccc(OC)c(CC(=O)Nc2ccc(C(F)(F)F)cc2)c1)C(=O)O (stereo not drawn)	136 to 137 °C
CCOC(=O)Nc1ccc(OC)cc1[N+](=O)[O-]	56 to 57 °C

For this compound ( "O=C(c1ccc(Br)cc1)N1CC(=O)N(CCc2ccccc2)C(=O)C1" ), measured melting point is 110 to 112 °C

# melting point (compound: "O=C(CCCCCN1CCN(c2cccc3c2CCCC3)CC1)N1Cc2ccccc2C1" ) is 115 °C

The measured melting point associated with "Clc1ccc(-c2nc3n(c2-c2ccc(Cl)cc2)CCC3)cc1" reads 189 to 192 °C

Per the record, "COc1cc(N)c(Cl)cc1C(C)=O" has melting point of 114 to 116 °C

// field: melting point; key: "CN1CCOc2cc(S(=O)(=O)n3c(CCC(=O)O)cc4nc(Cl)ccc43)ccc21" ; value = 175 to 185 °C

Record "O=Cc1cnc(-c2ccc(OC(F)(F)F)cc2)nc1" . Reported melting point: 114 to 115 °C

// "CCS(=O)(=O)Nc1cc(-n2nnn(CCCF)c2=O)c(F)cc1Cl" : melting point value = 84 to 85 °C

Recorded melting point (compound "CCc1nc2c(N)nc3ccccc3c2n1CCCC(C)=O" ): 206 to 208 °C

Record "CNC(=S)NCCSCc1cnccn1" . Reported melting point: 99.5 to 100 °C

"CCNC(=O)Nc1nc2cc(-c3cccnc3)cc(-c3nc(C)no3)n2n1" has a reported melting point of 298 to 301 °C

Per the records, this compound ( "O=C1c2cccc3cc([N+](=O)[O-])cc(c23)C(=O)N1OCc1ccccc1" ) has melting point equal to 239 to 241 °C

The compound listed as "COc1ccc([N+](=O)[O-])cc1OCCO" shows melting point equal to 115 °C

compound "CC(C)c1nc(N)nc(-c2ccc(F)c3ccccc23)c1Br" , melting point observed: 176 to 180 °C

melting point for "CCOC(=O)c1cc([N+](=O)[O-])c(C(=O)O)cc1C(=O)O" is 189 to 191 °C

---

Listing: melting point of selected compounds

CC(=O)Oc1ccc2c3c1OC1C(OS(=O)(=O)C(F)(F)F)CCC4(O)C(C2)N(C)CCC314 (stereo not given)	125 to 126 °C
CC(C)c1cccc(C(C)C)c1NC(=O)[C@H](Cc1ccc(OCc2ccccc2)cc1)NC(=O)OCC1c2ccccc2-c2ccccc21	168 to 171 °C
O=c1[nH]c(=O)n(C2OC(CO)C(O)C2F)cc1I (stereo not given)	216 to 217 °C
CC(=O)N[C@H]1CCC(=O)N2CCC[C@@H](C(=O)OC(C)(C)C)N2C1=O	162 to 163 °C
COc1ccc2[nH]c3c(c2c1)CCC(C(=O)O)C3 (stereo not given)	226 to 228 °C
Nc1ccc(F)c(N2C(=O)C3=C(CCCC3)C2=O)c1	134 to 136 °C
N#Cc1ccc(C=NNS(=O)(=O)c2ccccc2)cc1	209 to 213 °C
Cc1cccc2c(=O)[nH]c(N3CCN(C)CC3)cc12	186 to 188 °C

Lab note: measured melting point of "CCCc1nn(-c2ccc(C(F)(F)F)cn2)cc1COc1cccc(CC(=O)O)c1" was 77 to 78 °C

Reported melting point ( "CC(=O)Oc1ccc(CCc2cccc(OC(C)=O)c2)cc1" ) = 69.5 to 70 °C

Short answer for "COC(=O)c1sc2ccc(Br)cc2c1-c1ccccc1" : melting point was 125 to 126 °C
